- Target Or System: T1, V domain of human CD33 (human, UniProt P20138 18-139, limits assumed)
- T1 construct: recombinant, fully glycosylated V domain; also called Human CD33 V domain
- Assay Info: SPR, Fab captured, 37C;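 note: biacore 8K surface plasmon resonance with Fabs held on an amine-coupled anti-Fab antibody surface, soluble monomeric CD33 domain injected as analyte, double-referenced 1:1 binding fit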
Property Name: kon (M⁻¹ s⁻¹)
Kindly answer with a numeric value in M⁻¹ s⁻¹, unit omitted.

ADI-11807 Fab (Fab, V domains shown, Fab fragment; also called Ab5; I07) VH: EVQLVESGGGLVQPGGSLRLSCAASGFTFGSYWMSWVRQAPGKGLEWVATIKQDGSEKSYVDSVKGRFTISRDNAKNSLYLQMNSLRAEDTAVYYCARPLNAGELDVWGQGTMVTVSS VL: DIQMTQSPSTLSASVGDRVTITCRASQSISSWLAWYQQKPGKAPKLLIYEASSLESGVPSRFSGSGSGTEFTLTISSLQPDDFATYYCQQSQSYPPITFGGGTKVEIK :: 3.07e+06
ADI-11809 Fab (Fab, V domains shown, Fab fragment; also called Ab6) VH: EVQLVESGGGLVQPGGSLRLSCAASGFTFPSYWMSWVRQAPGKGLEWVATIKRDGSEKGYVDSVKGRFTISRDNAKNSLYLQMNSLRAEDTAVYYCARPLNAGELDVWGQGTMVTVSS VL: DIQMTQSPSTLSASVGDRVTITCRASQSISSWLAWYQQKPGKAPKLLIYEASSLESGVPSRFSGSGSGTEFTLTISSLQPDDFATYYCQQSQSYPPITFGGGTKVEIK :: 2.6e+06
ADI-10177 Fab (Fab, V domains shown, Fab fragment; also called Ab2) VH: EVQLVESGGGLVQPGGSLRLSCAASGFTFSSYWMSWVRQAPGKGLEWVANIKQDGSEKYYVDSVKGRFTISRDNAKNSLYLQMNSLRAEDTAVYYCARPLNAGELDVWGQGTMVTVSS VL: DIQMTQSPSTLSASVGDRVTITCRASQSISSWLAWYQQKPGKAPKLLIYEASSLESGVPSRFSGSGSGTEFTLTISSLQPDDFATYYCQQLESYPLTFGGGTKVEIK :: 1.56e+06
ADI-10157 Fab (Fab, V domains shown, Fab fragment; also called Ab13) VH: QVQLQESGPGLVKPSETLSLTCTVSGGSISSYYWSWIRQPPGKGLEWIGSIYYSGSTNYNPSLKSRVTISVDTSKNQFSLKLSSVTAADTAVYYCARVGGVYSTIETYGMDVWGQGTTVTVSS VL: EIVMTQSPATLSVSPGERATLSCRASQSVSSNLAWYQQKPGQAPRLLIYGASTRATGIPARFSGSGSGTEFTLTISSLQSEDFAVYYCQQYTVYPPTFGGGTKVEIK :: 112000
ADI-11776 Fab (Fab, V domains shown, Fab fragment; also called Ab3; H76) VH: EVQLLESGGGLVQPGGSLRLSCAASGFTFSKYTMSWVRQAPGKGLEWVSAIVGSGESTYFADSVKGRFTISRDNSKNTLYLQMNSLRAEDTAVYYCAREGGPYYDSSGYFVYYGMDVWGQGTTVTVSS VL: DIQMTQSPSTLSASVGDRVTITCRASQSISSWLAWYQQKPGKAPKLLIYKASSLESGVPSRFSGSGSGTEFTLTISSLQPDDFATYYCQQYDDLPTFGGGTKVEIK :: 4.52e+06
ADI-11839 Fab (Fab, V domains shown, Fab fragment; also called Ab28) VH: QVQLVQSGAEVKKPGASVKVSCKASGYTFSNYYMHWVRQAPGQGLEWMGWINPFSGGTRYAQKFQGRVTMTRDTSTSTVYMELSSLRSEDTAVYYCARDVGSSAYYYMDVWGKGTTVTVSS VL: DIQMTQSPSSVSASVGDRVTITCEASKGISSWLAWYQQKPGKAPKLLIYAASDLQSGVPSRFSGSGSGTDFTLTISSLQPEDFATYYCQQAFLFPPTFGGGTKVEIK :: 9.19e+06
ADI-10159 Fab (Fab, V domains shown, Fab fragment; also called Ab1; G59) VH: EVQLVESGGGLVQPGGSLRLSCAASGFTFSSYGMSWVRQAPGKGLEWVANIKQDGSEKYYVDSVKGRFTISRDNAKNSLYLQMNSLRAEDTAVYYCAREGGPYYDSSGYFVYYGMDVWGQGTTVTVSS VL: DIQMTQSPSTLSASVGDRVTITCRASQSISSWLAWYQQKPGKAPKLLIYDASSLESGVPSRFSGSGSGTEFTLTISSLQPDDFATYYCQQYESFPTFGGGTKVEIK :: 905000
ADI-10158 Fab (Fab, V domains shown, Fab fragment; also called Ab14) VH: QVQLQQWGAGLLKPSETLSLTCAVYGGSFSGYYWSWIRQPPGKGLEWIGEIDHSGSTNYNPSLKSRVTISVDTSKNQFSLKLSSVTAADTAVYYCARQGIHGLRYFDLWGRGTLVTVSS VL: EIVMTQSPATLSLSPGERATLSCRASQSVSSYLAWYQQKPGQAPRLLIYDASNRATGIPARFSGSGSGTDFTLTISSLEPEDFAVYYCQQDHNFPYTFGGGTKVEIK :: 1.04e+06

Problem: For the binder ADI-10161 Fab (Fab, V domains shown, Fab fragment; also called Ab16) VH: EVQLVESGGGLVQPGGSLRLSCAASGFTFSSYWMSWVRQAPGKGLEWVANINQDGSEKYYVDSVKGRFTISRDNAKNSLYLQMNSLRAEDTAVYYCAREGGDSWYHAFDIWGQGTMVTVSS VL: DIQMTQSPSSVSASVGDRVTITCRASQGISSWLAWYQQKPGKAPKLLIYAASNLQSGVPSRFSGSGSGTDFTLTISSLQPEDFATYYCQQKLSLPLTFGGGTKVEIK , what kon is on record?
Result: 1.29e+06

Problem: # iterate: ADI-11819 Fab (Fab, V domains shown, Fab fragment; also called Ab8) VH: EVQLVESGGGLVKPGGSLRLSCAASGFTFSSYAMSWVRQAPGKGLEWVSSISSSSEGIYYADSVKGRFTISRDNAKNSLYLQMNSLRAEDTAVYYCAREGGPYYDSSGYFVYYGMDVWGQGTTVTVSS VL: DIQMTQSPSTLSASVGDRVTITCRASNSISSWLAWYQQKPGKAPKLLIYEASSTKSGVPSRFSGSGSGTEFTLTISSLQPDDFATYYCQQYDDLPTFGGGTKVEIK
Result: 6.75e+06

Problem: Ok, now ADI-10164 Fab (Fab, V domains shown, Fab fragment; also called Ab18) VH: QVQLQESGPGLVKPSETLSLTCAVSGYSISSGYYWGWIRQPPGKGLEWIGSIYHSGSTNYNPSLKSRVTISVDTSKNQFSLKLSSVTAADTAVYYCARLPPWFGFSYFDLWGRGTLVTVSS VL: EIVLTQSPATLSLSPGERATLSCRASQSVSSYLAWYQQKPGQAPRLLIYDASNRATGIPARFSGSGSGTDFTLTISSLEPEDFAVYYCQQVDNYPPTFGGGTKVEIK
Result: 1.29e+06
